Assay target: recombinant human PAPPA (pregnancy associated plasma protein-A) (human, UniProt Q13219 82-1627)
Sequence (Q13219 82-1627 limits assumed): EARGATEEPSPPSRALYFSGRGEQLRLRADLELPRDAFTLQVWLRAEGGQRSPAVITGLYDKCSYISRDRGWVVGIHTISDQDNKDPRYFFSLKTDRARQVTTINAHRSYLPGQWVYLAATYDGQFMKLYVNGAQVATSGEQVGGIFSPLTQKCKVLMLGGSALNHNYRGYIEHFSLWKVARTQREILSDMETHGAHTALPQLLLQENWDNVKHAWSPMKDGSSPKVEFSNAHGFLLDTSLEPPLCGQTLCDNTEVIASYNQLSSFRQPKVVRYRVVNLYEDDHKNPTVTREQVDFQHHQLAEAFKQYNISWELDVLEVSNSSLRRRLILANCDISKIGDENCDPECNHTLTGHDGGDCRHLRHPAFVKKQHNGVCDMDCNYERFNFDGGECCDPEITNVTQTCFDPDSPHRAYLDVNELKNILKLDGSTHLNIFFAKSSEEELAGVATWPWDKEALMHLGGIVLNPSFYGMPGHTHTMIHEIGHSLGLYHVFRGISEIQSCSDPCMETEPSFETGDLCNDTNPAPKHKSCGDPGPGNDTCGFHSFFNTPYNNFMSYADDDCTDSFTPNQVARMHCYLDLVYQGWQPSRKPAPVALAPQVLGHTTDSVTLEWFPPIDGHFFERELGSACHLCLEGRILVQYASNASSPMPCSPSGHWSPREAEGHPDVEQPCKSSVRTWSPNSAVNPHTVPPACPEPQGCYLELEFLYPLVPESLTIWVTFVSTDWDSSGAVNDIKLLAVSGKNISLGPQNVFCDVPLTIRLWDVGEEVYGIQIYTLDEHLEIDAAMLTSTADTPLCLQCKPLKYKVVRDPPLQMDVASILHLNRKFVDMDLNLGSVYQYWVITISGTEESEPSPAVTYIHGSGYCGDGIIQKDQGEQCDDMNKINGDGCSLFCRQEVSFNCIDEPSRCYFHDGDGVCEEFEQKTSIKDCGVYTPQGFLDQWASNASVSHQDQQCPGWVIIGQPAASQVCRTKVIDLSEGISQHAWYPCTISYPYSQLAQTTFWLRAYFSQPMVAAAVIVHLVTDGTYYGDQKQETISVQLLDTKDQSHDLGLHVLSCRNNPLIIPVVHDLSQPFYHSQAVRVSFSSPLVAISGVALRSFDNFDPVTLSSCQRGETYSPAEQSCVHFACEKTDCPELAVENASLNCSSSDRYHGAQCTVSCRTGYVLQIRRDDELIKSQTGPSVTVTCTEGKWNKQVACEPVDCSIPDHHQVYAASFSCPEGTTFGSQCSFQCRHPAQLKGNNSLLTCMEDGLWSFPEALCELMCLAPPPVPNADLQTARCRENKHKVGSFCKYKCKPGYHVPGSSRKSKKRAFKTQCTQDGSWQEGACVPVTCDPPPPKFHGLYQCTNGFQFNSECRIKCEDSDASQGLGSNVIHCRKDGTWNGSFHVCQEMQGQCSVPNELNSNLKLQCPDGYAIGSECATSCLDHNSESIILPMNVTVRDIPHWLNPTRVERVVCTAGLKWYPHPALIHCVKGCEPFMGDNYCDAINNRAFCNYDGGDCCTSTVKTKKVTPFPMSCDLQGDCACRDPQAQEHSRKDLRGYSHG
Measurement protocol: cell-based or functional assay
What PAPP-A cleavage of IGFBP-5 Mean pIC50 was measured for each of the following?
Please make sure the unit comes right after the number.

Worked examples, 2 binders total:
Incoming: Can you share its PAPP-A cleavage of IGFBP-5 Mean pIC50? I mean this binder: TPP-12708 (antibody, human IgG1, kappa, V domains shown) VH: QVQLVQSGAEVKKPGASVKVSCKASGYTFTSYAMHWVRQAPGQRLEWMGWINAGTGATKYARKFQGRVTITRDTSASTAYMELSSLRSEDTAVYYCARGPSMETPTTYGMEVWGQGTTVTVSS VL: DIQMTQSPSSVSASVGDRVTITCRASQGISRWLAWYQQKPGKAPKLLIYSTSSLQLGVPSRFSGSGSGTDFTLTISSLQPEDFATYYCQQENDYPFTFGGGTKVEIKR
Outgoing: 11.1 pIC50

Incoming: Value lookup for PAPP-A cleavage of IGFBP-5 Mean pIC50; key = TPP-12821 (antibody, human IgG1, kappa, V domains shown) VH: EVQLVQSGAEVKKPGESLKISCKGSGYSFTSDWIGWVRQAPGKGLEWMGIIYPGGSDTRYSPSFRGQVTISADKSISTAYLQWSSLKASDTAVYYCARGPLRSDYVDVWGQGTMVTVSS VL: EIVMTQSPATLSVSPGERATLSCRASQSVGSNLAWYQQKPGQAPRLLIYRASTRATGIPARFSGSGSGTEFTLTISSLQSEDFAVYYCQQPYVWPITFGGGTKVEIKR
Outgoing: 9.1 pIC50

# next binder below
Incoming: I have this binder here, TPP-12801 (antibody, human IgG1, kappa, V domains shown) VH: QLQLQESGPGLVKPSETLSLTCTVSGGSISSSDYYWGWIRQPPGKGLEWIGSIFYSGSTYYNPSLKSRVTISVDTSKNQFSLKLSSVTAADTAVYYCARATTSSSADYWGQGTLVTVSS VL: DIQMTQSPSSVSASVGDRVTITCRASQGVSRWLAWYQQKPGKAPKLLIYAASSLQSGVPSRFSGSGSGTDFTLTISSLQPEDFATYYCQQGNVPPLTFGGGTKVEIKR , and I need its recorded PAPP-A cleavage of IGFBP-5 Mean pIC50.
Outgoing: 9.1 pIC50
